tested target: fMet-Leu-Phe receptor (Homo sapiens) (UniProt P21462)
Sequence (P21462 whole entry, looked up): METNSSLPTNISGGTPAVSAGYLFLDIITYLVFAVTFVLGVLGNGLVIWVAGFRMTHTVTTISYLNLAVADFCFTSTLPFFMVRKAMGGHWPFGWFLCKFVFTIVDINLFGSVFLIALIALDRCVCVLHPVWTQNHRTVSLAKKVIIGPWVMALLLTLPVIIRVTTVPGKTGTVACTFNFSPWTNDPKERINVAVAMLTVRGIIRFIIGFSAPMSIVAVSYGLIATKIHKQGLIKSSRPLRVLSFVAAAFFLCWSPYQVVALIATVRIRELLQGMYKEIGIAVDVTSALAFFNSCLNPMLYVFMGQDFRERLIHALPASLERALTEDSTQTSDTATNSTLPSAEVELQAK
pIC50: −log10 of the molar value.
quantity kind: pIC50

Example entries and their recorded answers appear below.
1) COc1ccc(-c2cn3cccnc3n2)cc1NC(=O)C1CC1 ... < 4.14
2) CCOC(=O)N1CCN(c2nc(-c3ccc(OC)c(OC)c3)cc(C(F)(F)F)n2)CC1 ... < 4.30
3) COc1ccc(-c2cc(C(F)(F)F)nc(N3CCN(c4ccccc4)CC3)n2)cc1OC ... < 4.30
4) COc1ccc(-c2cn3cccnc3n2)cc1NC(=O)C1CCCC1 ... < 4.18
5) COc1ccc(-c2cn3cccnc3n2)cc1NC(=O)C(C)C ... < 4.15
6) COc1ccc(-c2cc(C(F)(F)F)nc(N3CCN(Cc4ccccc4)CC3)n2)cc1OC ... < 4.31
7) COc1ccc(-c2cc(C(F)(F)F)nc(N3CCN(C(c4ccccc4)c4ccccc4)CC3)n2)cc1OC ... < 4.38
8) COc1ccc(CC(=O)Nc2cc(-c3cn4cccnc4n3)ccc2OC)cc1 ... < 4.24

System fMet-Leu-Phe receptor (Homo sapiens) (UniProt P21462). Read-out pIC50. Item O=C(N1CCN(c2nc(-c3ccccc3)c3ccccc3n2)CC1)C(F)(F)F . Report value.
< 4.24

System fMet-Leu-Phe receptor (Homo sapiens) (UniProt P21462). Read-out pIC50. Item CCC(=O)Nc1cc(-c2cn3cccnc3n2)ccc1OC . Report value.
< 4.12
